Assay: inhibition of PAO1 biofilm formation – strain PAO1, LB-PBS medium, absorbance 600 nm, primary screen (AID 1176)
Conditions: P. aeruginosa PAO1 growth/biofilm, A600, 12 h; higher = more signal
# z-score per entry
The answer should be written as a number, with no unit following it.

Study these solved cases before continuing.
>>> observed("COc1cc(CO)cc(I)c1O[C@H]1C=C(C(=O)NCCO)C[C@@H](NC[C@@H]2CCCO2)[C@@H]1O")
0.0694
>>> observed("[N-]=[N+]=Nc1ccccc1[C@H]1OC(c2ccc(OCCCO)cc2)=N[C@@]1(Cc1ccccc1)C(=O)N1CCOCC1")
0.948
>>> observed("Cc1ccc(S(=O)(=O)N2C[C@@H](C(=O)O)[C@H](Sc3ccccc3)C[C@H]2c2ccccc2)cc1")
0.409
>>> observed("CO[C@H]1O[C@H](CO)[C@@H](OC(=O)Nc2ccccc2-c2ccccc2)[C@H](OC(=O)Nc2ccccc2-c2ccccc2)[C@@H]1OC(=O)Nc1ccccc1-c1ccccc1")
1.31

Return z-score (reported value) for this molecule: C=C(CCCC)/C(=C/C[C@@H](OC(C)=O)c1cccc(OCCO)c1)c1cnc2ccccc2c1
0.108

Return z-score (reported value) for this molecule: O=C1NC(=O)C2C1C=CC(C(O)c1ccc(-c3ccccc3)s1)N2Nc1ccc(Cl)cc1Cl (stereo unspecified)
2.64

Return z-score (reported value) for this molecule: O=C1C2C=CC(C(O)c3cc(C(F)(F)F)cc(C(F)(F)F)c3)N(Nc3ccccc3)C2C(=O)N1c1ccccc1 (stereo unspecified)
1.41

Return z-score (reported value) for this molecule: CCCCC(=C=CC[C@@H](O)c1ccc(CO)o1)CCO
0.838

Return z-score (reported value) for this molecule: O[C@@H](Cc1ccccc1)[C@@H](/C=C/C1CC1)NCc1cccc(Cl)c1
-0.344

Return z-score (reported value) for this molecule: CN1C(=O)C2C=CC(C(O)c3ccccc3)N(N3CCCCC3)C2C1=O (stereo unspecified)
0.462

Return z-score (reported value) for this molecule: O=C1O[C@@H](c2ccccc2)[C@@H](c2ccccc2)N2[C@@H](c3ccc(OCCO)cc3)[C@]3(C(=O)Nc4ccc(C#CC5=CCCCC5)cc43)[C@@H](C(=O)N3CCCCCCC3)[C@H]12
1.77

Return z-score (reported value) for this molecule: COc1ccc([Si](C)(C)[C@@H]2[C@@H](CCO)O[C@]3(C(=O)N(Cc4cccc(N5CCOC5=O)c4)c4ccccc43)[C@H]2C)cc1
2.95

Return z-score (reported value) for this molecule: COc1ccc(C(=O)Nc2ccc(CN3C(=O)[C@]4(O[C@H](CC(=O)N5CCC[C@H]5CO)[C@@H]([Si](C)(C)c5ccc(OC)cc5)[C@@H]4C)c4ccccc43)cc2)cc1
0.0245

###

Assay: JC-1 mitochondrial signal, unstimulated adipocytes – cell-based, JC-1 fluorescence, 3T3-L1 adipocytes, 24 h, 100 nL compound, profiling panel (AID 1168)
Settings: JC-1 mitochondrial fluorescence, higher = more signal, called active from +8 up or from −8 down
Active and inactive are the calls of the source.
measured parameter: z-score

Study these solved cases before continuing.
>>> observed("CCN(CC)c1ccc(N2CC=CC34O[C@@H]5C=CCOC(=O)[C@@H]5[C@H]3C(=O)N(CCCCCCO)[C@@H]4C2=O)cc1 (stereo partly drawn)")
"1.21 (inactive)"
>>> observed("CN1C(=O)C2C=CC(C(O)C=Cc3ccc([N+](=O)[O-])cc3)N(Nc3ccccc3)C2C1=O (stereo not drawn)")
"-1.48 (inactive)"
>>> observed("COCCCNC(=O)[C@@H]1c2ccccc2C(=O)N(Cc2ccccc2OC)[C@H]1c1ccc(CO)cc1")
"-0.588 (inactive)"
>>> observed("CCOC(=O)C[C@H]1[C@H](OC(=O)c2ccc(-c3ccccc3)cc2)[C@@H](NC(=O)c2ccccc2)c2cc(OCCCO)ccc2N1C(=O)Cc1ccc(OC)cc1")
"0.285 (inactive)"
>>> observed("CC[C@@H]1C=C(C(=O)O)[C@H](c2cccc3ccccc23)N1S(=O)(=O)c1ccc(C)cc1")
"0.291 (inactive)"

Return z-score (reported value) for this compound: C=C(CCCC)/C(=C/C[C@@H](OC(C)=O)c1cccc(OCCO)c1)c1cnc2ccccc2c1
-2 (inactive)

Return z-score (reported value) for this compound: COc1ccc(NN2C(C(O)c3ccc(N(C)C)cc3)C=CC3C(=O)N(C4CCCCC4)C(=O)C32)cc1 (stereo not drawn)
-0.771 (inactive)

Return z-score (reported value) for this compound: COc1cc(CO)cc(I)c1O[C@H]1C=C(C(=O)NCCO)C[C@@H](N(C(=O)c2cc3ccccc3oc2=O)C2CCCCCC2)[C@@H]1O
-1.51 (inactive)

Return z-score (reported value) for this compound: CCCC=C(CCC)[C@@H](NC(=O)OCC(C)C)c1ccccc1
-0.594 (inactive)

Return z-score (reported value) for this compound: C=CCOC(=O)[C@H]1[C@@H]2C(=O)O[C@@H](c3ccccc3)[C@@H](c3ccccc3)N2[C@@H](c2ccc(OCCOC(=O)[C@@H]3C[C@@H]4C(=O)N5CCC[C@H]5C(=O)N4[C@@H]3c3cccc(OCCO)c3)cc2)[C@]12C(=O)Nc1ccc(I)cc12
1.19 (inactive)

Return z-score (reported value) for this compound: O=C1O[C@H](c2ccccc2)[C@H](c2ccccc2)N2[C@H]1[C@@H](C(=O)NC[C@H](O)c1ccccc1)[C@]1(C(=O)Nc3ccccc31)[C@H]2c1ccc(O)cc1
-0.104 (inactive)

Return z-score (reported value) for this compound: CCCCC(O)C1C=CC2C(=O)N(C)C(=O)C2N1N1CCCCC1 (stereo not drawn)
-0.686 (inactive)

Return z-score (reported value) for this compound: CCOC(=O)C[C@H]1[C@H](OC(=O)c2cc3ccccc3oc2=O)[C@@H](NC(=O)CC(C)C)c2cc(OCCCO)ccc2N1C(=O)c1ccccc1
0.9 (inactive)

Return z-score (reported value) for this compound: Cc1ccc(/C=C/C=O)cc1
-0.111 (inactive)

Return z-score (reported value) for this compound: CC(C)C(=C=CC[C@H](O)c1ccc(CO)o1)CCO
-0.0538 (inactive)

###

Experiment: budding yeast growth changes without added modifier – OD600, strain BY4716, 24 h, basal condition, primary screen (AID 1173)
Settings: S. cerevisiae BY4716 growth, OD600, 24 h; higher = more signal, called active from +8 up or from −8 down
So basically: z-score at -0.9 or higher? That is Satisfied. Lower than -0.9? That is Not satisfied.

Some solved cases for reference:
>>> label("CCOC(=O)C[C@H]1[C@H](OC(=O)c2ccc(C(=O)c3ccccc3)cc2)[C@@H](NC(=O)c2ccccc2)c2cc(OCCCO)ccc2N1C(=O)c1ccccc1")
"Satisfied"
>>> label("COC(=O)[C@H](Cc1ccccc1)N[C@H](/C=C/C1CC1)[C@@H](O)Cc1ccccc1")
"Not satisfied"
>>> label("O=C1OCCC=C[C@H]2OC34C=CCN(c5ccc(Cl)cc5)C(=O)[C@H]3N(CCCO)C(=O)[C@@H]4C12 (stereo partly specified)")
"Satisfied"
>>> label("O=C1O[C@@H](c2ccccc2)[C@@H](c2ccccc2)N2[C@@H](c3ccccc3OCCO)[C@]3(C(=O)Nc4ccccc43)[C@@H](C(=O)O)[C@H]12")
"Not satisfied"

In the following, a different molecule is considered.
Threshold query (z-score >= -0.9) on CCN(CC)c1ccc(N2CC=CC34O[C@@H]5/C=C\CCC(C)OC(=O)C5[C@H]3C(=O)N(CCCCCO)[C@@H]4C2=O)cc1 (stereo partly specified)
Satisfied

###

# composite z-score per entry
Molecular target: Epidermal growth factor receptor (Homo sapiens) (UniProt P00533)
Sequence (P00533 whole entry, looked up): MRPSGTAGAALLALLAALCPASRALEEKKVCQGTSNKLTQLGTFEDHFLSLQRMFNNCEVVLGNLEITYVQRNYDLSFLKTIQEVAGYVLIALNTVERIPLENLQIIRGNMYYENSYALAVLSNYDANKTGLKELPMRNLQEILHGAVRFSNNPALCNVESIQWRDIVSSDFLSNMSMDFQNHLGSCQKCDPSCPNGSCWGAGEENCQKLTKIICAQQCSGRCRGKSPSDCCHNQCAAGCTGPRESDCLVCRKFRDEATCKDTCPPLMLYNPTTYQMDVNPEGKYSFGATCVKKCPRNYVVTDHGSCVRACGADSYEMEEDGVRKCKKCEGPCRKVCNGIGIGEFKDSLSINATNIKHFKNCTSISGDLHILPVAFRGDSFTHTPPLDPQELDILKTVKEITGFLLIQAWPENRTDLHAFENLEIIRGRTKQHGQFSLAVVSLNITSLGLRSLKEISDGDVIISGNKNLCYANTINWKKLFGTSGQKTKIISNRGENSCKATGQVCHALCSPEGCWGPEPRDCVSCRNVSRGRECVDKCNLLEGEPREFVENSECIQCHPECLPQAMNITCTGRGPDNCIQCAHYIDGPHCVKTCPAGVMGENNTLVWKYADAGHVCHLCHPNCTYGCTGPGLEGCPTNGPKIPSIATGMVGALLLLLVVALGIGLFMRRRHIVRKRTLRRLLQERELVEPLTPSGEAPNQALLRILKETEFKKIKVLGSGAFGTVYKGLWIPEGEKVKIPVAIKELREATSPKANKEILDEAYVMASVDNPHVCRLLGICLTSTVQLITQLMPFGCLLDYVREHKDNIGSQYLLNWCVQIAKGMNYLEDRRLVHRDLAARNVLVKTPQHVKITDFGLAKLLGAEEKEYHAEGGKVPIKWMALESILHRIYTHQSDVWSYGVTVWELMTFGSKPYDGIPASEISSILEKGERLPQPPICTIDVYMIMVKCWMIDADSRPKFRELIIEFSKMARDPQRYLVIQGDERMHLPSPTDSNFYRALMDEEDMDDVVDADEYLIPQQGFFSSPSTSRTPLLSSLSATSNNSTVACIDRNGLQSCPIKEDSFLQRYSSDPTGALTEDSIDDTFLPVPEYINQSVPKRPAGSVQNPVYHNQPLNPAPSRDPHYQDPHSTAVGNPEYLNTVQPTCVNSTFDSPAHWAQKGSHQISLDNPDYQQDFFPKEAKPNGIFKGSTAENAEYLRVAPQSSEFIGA
Assay: compounds binding epidermal growth factor receptor – biochemical, small-molecule microarray, 635 nm fluorescence, primary screen (AID 1104);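 note: score merges 667 nm emission intensity with spot signal to noise over triplicate slides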
Settings: EGFR binding, higher = more signal
The answer should be written as a number, with no unit following it.

Study these solved cases before continuing.
>>> observed("C=CCC(OC(C)=O)[C@@H]1[C@@H](N(Cc2ccc(-c3cccc(C(F)(F)F)c3)o2)C(=O)c2cccc3ccccc23)c2cc(OCCCO)ccc2N1C(=O)Cc1ccc2ccccc2c1 (stereo partly drawn)")
-0.352
>>> observed("O=C1NC(=O)C2C1C=CC(C(O)c1ccc(I)cc1)N2Nc1ccccn1 (stereo not drawn)")
0.268

Return composite z-score (reported value) for this compound: COC(=O)c1c2oc(c1C(=O)OC)C(=O)NC1(CCCCC1)c1cn(nn1)C[C@H](Cc1ccccc1)NC(=O)N[C@H](CO)CC2
0.0053

###

System: XIP peptide (Xip251-270) binding
Experiment: XIP fragment 251-270 binding compounds – biochemical, small-molecule microarray, fluorescence 635/667 nm, 0.1 µg/mL protein, primary screen (AID 1182)
Settings: fluorescent protein binding, 635 nm, higher = more signal, called active from +8 up or from −8 down
measured parameter: composite z-score
The answer should be written as a number, with no unit following it.

Give composite z-score for CC(=O)NCCCC[C@@H]1NC(=O)[C@H]2C[C@@H](C(=O)NCCCCCNC(=O)CS)[C@@H](c3ccc(O)cc3)N2C1=O tested on XIP peptide (Xip251-270) binding.
0.184

Give composite z-score for COC(=O)[C@]1(Cc2ccccc2)N=C(c2ccc(OCCCO)cc2)O[C@@H]1c1ccccc1N=[N+]=[N-] tested on XIP peptide (Xip251-270) binding.
0.062

Give composite z-score for CC(C)[Si](C#CCCCC#N)(Oc1ccccc1Br)C(C)C tested on XIP peptide (Xip251-270) binding.
0.983

Give composite z-score for CCOC(=O)C1=CC[C@@H](c2ccccc2)N(S(=O)(=O)c2ccc(C)cc2)[C@H]1c1ccc(CC)cc1 tested on XIP peptide (Xip251-270) binding.
-0.223

Give composite z-score for COCCOC(=O)N1C(=O)[C@@]2(c3cc(C#CC4=CCCCC4)ccc31)[C@H](C(N)=O)[C@H]1C(=O)O[C@H](c3ccccc3)[C@H](c3ccccc3)N1[C@@H]2c1ccc(O)cc1 tested on XIP peptide (Xip251-270) binding.
1.79

Give composite z-score for CC(C)(C)OC(=O)CC[C@@]1(C(=O)N2CCCCC2)N=C(c2ccc(OCCCO)cc2)O[C@@H]1c1ccccc1 tested on XIP peptide (Xip251-270) binding.
0.671

Give composite z-score for CC(c1ccccc1)C(O)C1C=CC2C(=O)N(c3ccccc3)C(=O)C2N1Nc1ccccc1 (centres undefined) tested on XIP peptide (Xip251-270) binding.
1.06

Give composite z-score for COc1ccc([C@H]2OC[C@@H]3CCC(=O)N32)cc1 tested on XIP peptide (Xip251-270) binding.
0.467

Give composite z-score for C=CC[C@]1(C(=O)NCc2ccccc2)N=C(c2ccc(OCCCO)cc2)O[C@H]1c1ccccc1CN=[N+]=[N-] tested on XIP peptide (Xip251-270) binding.
-0.274

Give composite z-score for COC(=O)c1c2oc(c1C(=O)OC)C(=O)NC1(CCCCC1)c1cn(nn1)C[C@H](Cc1ccccc1)NC(=O)N[C@H](CO)CC2 tested on XIP peptide (Xip251-270) binding.
0.064

Give composite z-score for CC(C)(C)OC(=O)CC[C@]1(C(=O)NCCN2CCOCC2)COC(c2ccc(OCCCO)cc2)=N1 tested on XIP peptide (Xip251-270) binding.
1.16

Give composite z-score for O=C1C[C@@](C(=O)NCc2ccccc2)(c2ccc([N+](=O)[O-])cc2)[C@@H](c2ccc(CO)cc2)N1CC12CC3CC(CC(C3)C1)C2 tested on XIP peptide (Xip251-270) binding.
1.9
